- Tested on: MALME-3M melanoma
- assay_remarks: NCI-60 one-dose screen, 48 h
- conditions: 10 µM unless noted
- Method: Cells are grown in 96 well plates and exposed to the test compound for 48 hours. Compounds are tested at a single concentration, which is 10^-5 M for most compounds. The reported endpoint is percent growth (GI% or GIPRCNT), where numbers from 0 - 100% represent growth inhibition, and numbers from -100% - 0 represent cell death. For example, a value of 40 represents 60% growth inhibition. A value of 0 means no net growth occurred over the course of the experiment. […]
This is part of a sample that, as a whole, favours compounds with a hit. Of some 83,000 tested, about 20% had one in any assay. Active and inactive are the calls of the source. The calls were made as follows: active = growth percent below 10; inactive = the rest.
Write down the outcome that applies. Available outcomes: active, inactive

What did this assay record as the result for [N-]=[N+]=Nc1ncc(-c2ccc(C(F)(F)F)cc2)c(NC2CCCCCC2)n1 ? inactive

Subsequent entry: COC(=O)c1c[n+]([O-])ccc1OC inactive

Same read-out for O=C(Nc1ccc(-n2cc(-c3ccncc3)c(-c3ccc(Cl)c(O)c3)n2)cc1)Nc1ccc(Cl)c(C(F)(F)F)c1 ? active

Also, COc1cc(N2C(=O)C=CC2=O)ccc1N1C(=O)C=CC1=O please. inactive

Same thing, different molecule: CC1=C(C)C[C@]2(C(=O)O[C@H]3CCCC[C@@H]32)[S@](=O)C1 inactive

And for CCOC(=O)CNS(=O)(=O)CC(=O)c1ccccc1 ? inactive

How about this molecule: C[C@H]1C[C@@H](n2cnc3c(N)nccc32)[C@H](O)[C@@H]1O inactive

Do the same for CC(Br)c1nc2ccccc2cc1C(N)=O (centres undefined) please inactive

Also, CC(=O)Nc1nc(C)c(C(=O)N/N=C/c2cccs2)s1 please. inactive

Proceed to O=C(Nc1ccc(-n2cc(-c3ccncc3)c(-c3ccc(Cl)c(O)c3)n2)cc1)c1ccc(Cl)c(C(F)(F)F)c1 active

Proceed to Cc1ccc(S(=O)(=O)N/N=C2\CC3CCC2C3)cc1 (centres undefined) inactive

Another molecule: COC(=O)/C=C1/CCCCC1(C)C(=O)OC (centres undefined) inactive

Proceed to Cc1c(O)c(N=Nc2ccc(C(=O)O)c(O)c2)c2ccccc2c1O inactive

Follow-up entry: COc1cccc2c1nc1cccc(OC)c1[n+]2[O-] inactive

Also CC(O)CCC(C)[N+](=O)[O-] (centres undefined) ? inactive

Same lookup for COc1ccc(C2CC(=O)c3c(O)cc(OC4OC(COC5OC(C)C(O)C(O)C5O)C(O)C(O)C4O)cc3O2)cc1O (centres undefined) , please. inactive

Try this molecule too: N=C(N)N=Nc1ccc(NN=C(N)N)cc1 inactive

Do the same for COc1cc(NC(C)CCCN)c2nccc(C)c2c1OC (centres undefined) please inactive

And the next one, CCOC(=O)c1c(C)oc2ncnc(Nc3ccc(NC(=O)Nc4ccc(CC)cc4)cc3)c12 ? inactive

Same question, C/C(=N\Nc1cccc(Cl)n1)c1ccccn1 this time inactive

Ok, now CC(=O)c1ccc2c(c1)c1ccccc1n2C inactive

Another molecule: Clc1ccc(N/N=C/c2ccccn2)nc1 active

Proceed to NCCCOc1cc2ccccc2cc1C(=O)Nc1ccc(Cl)cc1OC(=O)c1cc2ccccc2cc1OCCCN active

Another molecule to look at: O=C(N/N=C/c1coc2ccccc2c1=O)c1cc2oc(-c3ccccc3)cc2[nH]1 active

Consider next the molecule CC(=O)Nc1nc(C)c(C(=O)NNS(=O)(=O)c2ccccc2)s1 in the same way. inactive

Let us now turn to COC(c1ccccc1)C(Br)C(=O)c1ccccc1 (centres undefined) inactive

Repeat for the following molecule: COc1ccc(Nc2c3ccccc3nc3ccccc23)cc1 inactive

What would you report for C=CCN(C)C ? inactive

COc1cc2ncnc(Nc3ccc4c(cnn4C(=O)Nc4ccccc4)c3)c2cc1OC ? inactive

Field entry: CC(=O)CC(=O)OC/C=C(/C)CCC=C(C)C inactive

Param item: CCOc1ccccc1/C=N\N=C(N/N=C/c1ccccc1OCC)N/N=C/c1ccccc1OCC inactive

Repeat for the following molecule: Cc1cc2cn3c4ccc(O)cc4nc(N)c3c2cc1C inactive

Then what about the molecule CC[C@H](Nc1ncnc2nc[nH]c12)c1nc2cccc(NCc3ccc(C(=O)NO)o3)c2c(=O)n1-c1ccccc1 ? inactive

Also check Cc1nc2ccccc2c(=O)n1-c1cccc(OCc2cn(-c3cccc(O)c3)nn2)c1 inactive

Another molecule: CCCCCCN(CCCCCC)CCC(=O)Nc1ccc(S(=O)(=O)c2ccc(NC(=O)CCN(CCCCCC)CCCCCC)cc2)cc1 inactive

Do the same for O=C(C(=O)N1CCOCC1)c1ccc(O[C@H]2O[C@H](CO)[C@@H](O)[C@H](O)[C@@H]2O)cc1 please inactive

Quick one: COc1cc(-c2cc3cnccc3c3nc(N)c4ccncc4c23)cc(OC)c1OC inactive

Another molecule to look at: COc1ccc(-c2nc(SCC(C)C)nc(Nc3ccccc3)c2C#N)cc1 inactive

Then this molecule: Nc1cc(N)c2nc(-c3ccccc3)c(NCCc3ccc(Cl)c(Cl)c3)nc2c1 active

Cool, now CCOC(=O)C1=C(c2ccccc2)NC(=O)NC1CN1C(=O)c2ccccc2C1=O (centres undefined) inactive

Thanks! And C=C(NC(=O)[C@H](C(C)C)N(C)c1cccc2[nH]ccc12)C(=O)OC ? inactive

Same lookup for OCCN1CCN(CC/C=C2/c3ccccc3Sc3ccc(C(F)(F)F)cc32)CC1 , please. inactive

Would you mind doing NC(N)=N/N=C/c1cccc(Br)c1 as well? inactive

Follow-up entry: OCCN1CCCN(CCCN2c3ccccc3Sc3ccc(C(F)(F)F)cc32)CC1 inactive
